Origin of the recorded values: patent US20260184777A1

ASSAY_SYSTEM: T1, human S100A8/A9 heterodimeric antigen, His-tagged (hS100A8/A9-His) (human, UniProt P05109 1-93; P06702 1-114)
T1 sequence 1: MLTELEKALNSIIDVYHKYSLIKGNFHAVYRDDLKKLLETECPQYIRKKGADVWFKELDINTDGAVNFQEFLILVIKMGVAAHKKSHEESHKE
T1 sequence 2: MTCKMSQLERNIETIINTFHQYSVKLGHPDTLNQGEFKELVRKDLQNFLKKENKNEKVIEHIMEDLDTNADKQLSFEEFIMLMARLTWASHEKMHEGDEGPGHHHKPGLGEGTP
ASSAY_SUMMARY: cell-based or functional assay
MEASUREMENT_NAME: Relative IC50 (IC50 relative to CM-1), IL-6 release from hS100A8/A9-activated human PBMCs

Would you please look over these solved cases?
binder="CM-69 (antibody, human IgG4 S228P, lambda, V domains shown) VH: EVQLVESGGGLVQPGGSLRLSCAASGFTFSSYAMSWVRQAPGKGLEWVSAISGSGGSTWYAASVKGRFTISRDNSKNTLYLQMNSLRAEDTAVYYCARKYRPSRAFDAWGQGTLVTVSS VL: SYELTQPPSVSVAPGQTARITCSGDALGDKYASWYQQKPGQAPVLVIYQDAKRPSGIPERFSGSNSGNTATLTISGTQAEDEADYYCQSNDADAVWVFGGGTKLTVLG" result_value="1.93 relative to CM-1"
binder="CM-110 (antibody, human IgG4 S228P, lambda, V domains shown) VH: EVQLVESGGGLVQPGGSLRLSCAASGFTFSSYAMAWVRQAPGKGLEWVSAISGSGGSTYYAASVKGRFTISRDNSKNTLYLQMNSLRAEDTAVYYCARKYRPSRVFDAWGQGTLVTVSS VL: SYELTQPPSVSVAPGQTARITCSGDALHDKYASWYQQKPGQAPVLVIYEDAKRPSGIPERFSGSNSGNTATLTISGTQAEDEADYYCQSNDADAVWVFGGGTKLTVLG" result_value="0.878 relative to CM-1"

Need Relative IC50 (IC50 relative to CM-1), IL-6 release from hS100A8/A9-activated human PBMCs of CM-85 (antibody, human IgG4 S228P, lambda, V domains shown) VH: EVQLVESGGGLVQPGGSLRLSCAASGYTFSSYAMSWVRQAPGKGLEWVSAISGSGGSTYYAASVKGRFTISRDNSKNTLYLQMNSLRAEDTAVYYCARKYRPSRVFDAWGQGTLVTVSS VL: SYELTQPPSVSVAPGQTARITCSGDALGDKYASWYQQKPGQAPVLVIYEDAKRPSGIPERFSGSNSGNTATLTISGTQAEDEADYYCQSNDADAVWVFGGGTKLTVLG , thanks.
1.86 relative to CM-1
